- measured-target: Solute carrier organic anion transporter family member 1B1 (Homo sapiens)
- Sequence (Q9Y6L6 whole entry): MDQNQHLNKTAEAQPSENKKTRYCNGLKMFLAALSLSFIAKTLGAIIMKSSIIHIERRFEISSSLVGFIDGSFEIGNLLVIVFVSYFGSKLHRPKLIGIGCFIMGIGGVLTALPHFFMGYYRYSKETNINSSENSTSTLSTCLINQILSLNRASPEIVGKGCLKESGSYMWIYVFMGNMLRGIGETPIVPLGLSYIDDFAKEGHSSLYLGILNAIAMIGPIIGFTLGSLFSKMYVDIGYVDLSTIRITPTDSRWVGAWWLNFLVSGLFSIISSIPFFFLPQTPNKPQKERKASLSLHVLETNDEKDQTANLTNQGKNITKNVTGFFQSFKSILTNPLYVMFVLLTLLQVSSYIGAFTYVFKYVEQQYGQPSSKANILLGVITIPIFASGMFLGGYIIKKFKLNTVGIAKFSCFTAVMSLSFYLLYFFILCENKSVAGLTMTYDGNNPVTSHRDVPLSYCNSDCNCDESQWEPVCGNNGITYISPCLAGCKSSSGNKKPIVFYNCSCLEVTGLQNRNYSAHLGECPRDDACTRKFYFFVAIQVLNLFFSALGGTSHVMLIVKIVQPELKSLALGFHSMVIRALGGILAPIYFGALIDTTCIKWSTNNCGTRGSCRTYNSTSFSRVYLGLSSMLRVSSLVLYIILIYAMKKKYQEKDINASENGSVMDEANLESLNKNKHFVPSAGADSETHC
- cond: chinese hamster, cho, 10 µM
Think of 80% as a floor: if residual activity stands on it or above, it is criterion met; beneath it, criterion not met.

compound: O=C(O)CN(CC(=O)O)Cc1cc2c(cc1O)Oc1cc(O)c(CN(CC(=O)O)CC(=O)O)cc1C21OC(=O)c2ccccc21 [OFTASCEINE]
measured-target: Solute carrier organic anion transporter family member 1B1 (Homo sapiens)
category-label: criterion met

compound: COC1C(O)C(O[C@H]2CC[C@]3(C=O)C4C(CC[C@]3(O)C2)[C@@]2(O)CC[C@H](C3=CC(=O)OC3)[C@@]2(C)C[C@H]4OC(C)=O)OC(C)C1OC(C)=O (stereo partly specified) [SARMENTOSIDE B]
measured-target: Solute carrier organic anion transporter family member 1B1 (Homo sapiens)
category-label: criterion not met

compound: O=C(O)Cc1nn(Cc2ccc(Br)cc2F)c(=O)c2ccccc12 [PONALRESTAT]
measured-target: Solute carrier organic anion transporter family member 1B1 (Homo sapiens)
category-label: criterion met

compound: Cc1cc(O)c(C=O)c2c1C(=O)Oc1c(C)c(O)c3c(c1O2)C(O)OC3=O (stereo unspecified) [NORSTICTIC ACID]
measured-target: Solute carrier organic anion transporter family member 1B1 (Homo sapiens)
category-label: criterion not met

compound: CCN1C[C@]2(C)CC[C@H](OC)[C@@]34C1[C@]1(OCO[C@@]15C[C@H](OC)[C@H]1C[C@]3(O)[C@@H]5[C@H]1OC)[C@@H](OC(C)=O)[C@H]24 [DELTALINE]
measured-target: Solute carrier organic anion transporter family member 1B1 (Homo sapiens)
category-label: criterion met

compound: CC[S+]([O-])CCSP(=O)(OC)OC (stereo unspecified) [OXDEMETONMETHYL]
measured-target: Solute carrier organic anion transporter family member 1B1 (Homo sapiens)
category-label: criterion met

compound: COc1cc(C)c2c(=O)cc(-c3ccccc3)oc2c1 [METHOXYVONE]
measured-target: Solute carrier organic anion transporter family member 1B1 (Homo sapiens)
category-label: criterion met

compound: CC1(C)O[C@@H]2C[C@H]3[C@@H]4C[C@H](F)C5=CC(=O)CC[C@]5(C)[C@H]4[C@@H](O)C[C@]3(C)[C@]2(C(=O)CO)O1 [FLURANDRENOLIDE]
measured-target: Solute carrier organic anion transporter family member 1B1 (Homo sapiens)
category-label: criterion met

compound: CCOP(=S)(OCC)SCSCC [PHORATE]
measured-target: Solute carrier organic anion transporter family member 1B1 (Homo sapiens)
category-label: criterion met

compound: Br.COC(=O)C1=CCCN(C)C1 [ARECOLINE HYDROBROMIDE]
measured-target: Solute carrier organic anion transporter family member 1B1 (Homo sapiens)
category-label: criterion met

compound: O=C(/C=C(\O)c1ccccc1)c1ccccc1O [2',beta-DIHYDROXYCHALCONE]
measured-target: Solute carrier organic anion transporter family member 1B1 (Homo sapiens)
category-label: criterion met

compound: NC/C=C/C(=O)O [t-4-AMINOCROTONIC ACID (TACA)]
measured-target: Solute carrier organic anion transporter family member 1B1 (Homo sapiens)
category-label: criterion met

compound: COc1cc2ccc(=O)oc2c2ccoc12 [SPHONDIN]
measured-target: Solute carrier organic anion transporter family member 1B1 (Homo sapiens)
category-label: criterion met

compound: CC1(C)S[C@@H]2[C@H](NC(=O)[C@H](N)c3ccccc3)C(=O)N2[C@H]1C(=O)[O-].[Na+] [AMPICILLIN SODIUM]
measured-target: Solute carrier organic anion transporter family member 1B1 (Homo sapiens)
category-label: criterion not met

compound: C[C@@H]1CC[C@@]2(OC1)O[C@H]1C[C@H]3[C@@H]4CC=C5C[C@@H](O)CC[C@]5(C)[C@H]4CC[C@]3(C)[C@H]1[C@@H]2C [DISOGENIN]
measured-target: Solute carrier organic anion transporter family member 1B1 (Homo sapiens)
category-label: criterion met

compound: CC(=O)[C@H]1CC[C@H]2[C@@H]3CC[C@@H]4C[C@H](O)CC[C@]4(C)[C@H]3C[C@H](O)[C@]12C
measured-target: Solute carrier organic anion transporter family member 1B1 (Homo sapiens)
category-label: criterion met

compound: CC1(C)CC23C(=O)CCC(O)C2(C)CCC13 (stereo unspecified) [3-NOR-3-OXOPANASINSAN-6-OL]
measured-target: Solute carrier organic anion transporter family member 1B1 (Homo sapiens)
category-label: criterion met

compound: C[C@H](CS)C(=O)N1CCC[C@H]1C(=O)O [CAPTOPRIL]
measured-target: Solute carrier organic anion transporter family member 1B1 (Homo sapiens)
category-label: criterion met

compound: CC1(C)NC(=O)N(c2ccc([N+](=O)[O-])c(C(F)(F)F)c2)C1=O [NILUTAMIDE]
measured-target: Solute carrier organic anion transporter family member 1B1 (Homo sapiens)
category-label: criterion met

compound: COC(=O)[C@H]1OC(=O)[C@H]2O[C@]23[C@]2(C)[C@H](CC[C@]13C)[C@]1(C)CCC(=O)C(C)(C)[C@@H]1C[C@H]2OC(C)=O
measured-target: Solute carrier organic anion transporter family member 1B1 (Homo sapiens)
category-label: criterion not met

compound: CO[C@]12C[C@@H](COC(=O)c3cncc(Br)c3)CN(C)[C@@H]1Cc1cn(C)c3cccc2c13 [NICERGOLINE]
measured-target: Solute carrier organic anion transporter family member 1B1 (Homo sapiens)
category-label: criterion met

compound: COc1ccc2c(c1)OC1(O)COc3cc(OC)c(OC)cc3C1=C2 (stereo unspecified) [12a-HYDROXY-5-DEOXYDEHYDROMUNDUSERONE]
measured-target: Solute carrier organic anion transporter family member 1B1 (Homo sapiens)
category-label: criterion met

compound: COc1ccc2c(c1)O[C@@H]1COc3cc(OC)c(OC)cc3[C@@H]1C2=O [MUNDOSERONE]
measured-target: Solute carrier organic anion transporter family member 1B1 (Homo sapiens)
category-label: criterion met

compound: COc1ccc(CCC(=O)c2c(O)cc(O[C@@H]3O[C@H](CO)[C@@H](O)[C@H](O)[C@H]3O[C@@H]3O[C@@H](C)[C@H](O)[C@@H](O)[C@H]3O)cc2O)cc1O [NEOHESPERIDIN DIHYDROCHALCONE]
measured-target: Solute carrier organic anion transporter family member 1B1 (Homo sapiens)
category-label: criterion not met

compound: CNC(=O)Oc1cccc2c1OC(C)(C)O2 [BENDIOCARB]
measured-target: Solute carrier organic anion transporter family member 1B1 (Homo sapiens)
category-label: criterion met

compound: O=C(O)/C=C/c1ccc(O)c(O)c1 [CAFFEIC ACID]
measured-target: Solute carrier organic anion transporter family member 1B1 (Homo sapiens)
category-label: criterion not met

compound: Cn1c(=O)[nH]c2ncn(C)c2c1=O [PARAXANTHINE]
measured-target: Solute carrier organic anion transporter family member 1B1 (Homo sapiens)
category-label: criterion met

compound: C[C@@H](CO)NC(=O)[C@@H]1C=C2c3cccc4[nH]cc(c34)C[C@H]2N(C)C1.O=C(O)/C=C\C(=O)O [ERGONOVINE MALEATE]
measured-target: Solute carrier organic anion transporter family member 1B1 (Homo sapiens)
category-label: criterion not met

compound: CC(C)=CCCC1(C)C=Cc2c(O)c3c(c(CC=C(C)C)c2O1)OC12C(=CCCC1C(C)(C)O[C@@]2(C/C=C(\C)C(=O)O)C(=O)O)C3=O (stereo partly specified) [GARCINOLIC ACID]
measured-target: Solute carrier organic anion transporter family member 1B1 (Homo sapiens)
category-label: criterion not met

====

- measured-target: Solute carrier organic anion transporter family member 1B1 (Homo sapiens)
- cond: chinese hamster, cho, 10 µM
recorded-endpoint: residual activity (%)

molecule: CC1Cc2ccccc2N1NC(=O)c1ccc(Cl)c(S(N)(=O)=O)c1 (stereo unspecified) [INDAPAMIDE]
measured-target: Solute carrier organic anion transporter family member 1B1 (Homo sapiens)
recorded-endpoint: residual activity
measurement-units: %
number: 80.06

molecule: Oc1cc(O)c2c(c1)O[C@H](c1cc(O)c(O)c(O)c1)[C@H](O)C2 [EPIGALLOCATECHIN]
measured-target: Solute carrier organic anion transporter family member 1B1 (Homo sapiens)
recorded-endpoint: residual activity
measurement-units: %
number: 101.7

molecule: O=c1c(-c2ccccc2)coc2cc(O)cc(O)c12 [5,7-DIHYDROXYISOFLAVONE]
measured-target: Solute carrier organic anion transporter family member 1B1 (Homo sapiens)
recorded-endpoint: residual activity
measurement-units: %
number: 54.1

molecule: CN[C@H](CC(C)C)C(=O)N[C@H]1C(=O)N[C@@H](CC(N)=O)C(=O)N[C@H]2C(=O)N[C@H]3C(=O)N[C@H](C(=O)N[C@H](C(=O)O)c4cc(O)cc(O)c4-c4cc3ccc4O)[C@H](O)c3ccc(c(Cl)c3)Oc3cc2cc(c3O[C@@H]2O[C@H](CO)[C@@H](O)[C@H](O)[C@H]2O[C@H]2C[C@](C)(N)[C@H](O)[C@H](C)O2)Oc2ccc(cc2Cl)[C@H]1O.Cl [VANCOMYCIN HYDROCHLORIDE]
measured-target: Solute carrier organic anion transporter family member 1B1 (Homo sapiens)
recorded-endpoint: residual activity
measurement-units: %
number: 99.99

molecule: Cl.O=C(O)C1=CCNCC1 [ISOGUVACINE HYDROCHLORIDE]
measured-target: Solute carrier organic anion transporter family member 1B1 (Homo sapiens)
recorded-endpoint: residual activity
measurement-units: %
number: 113.5

molecule: O=C1[C@H](CC[C@H](O)c2ccc(F)cc2)[C@@H](c2ccc(O)cc2)N1c1ccc(F)cc1
measured-target: Solute carrier organic anion transporter family member 1B1 (Homo sapiens)
recorded-endpoint: residual activity
measurement-units: %
number: 51.36
